# SYSTEM: T1, AAV8
# T1 construct: also called adeno-associated virus serotype 8
# ASSAY NOTES: SPR, AAV on CM5 chip;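 note: surface plasmon resonance with AAV amine-coupled to the chip as ligand, nanobodies injected as analyte over a concentration series, rate constants and affinity fitted from binding curves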
READOUT NAME: log10 of koff (log10 of the value in s⁻¹)
Friendly reminder: values = log10 of koff, unit s⁻¹.

Tell me its log10 of koff given A4-016 (VHH) VHH: VQLQESGGGLVQPGGSLRLSCAASGSIFSINLMGWYRQAPGKQRELVATITPGGNTNYAGSVKGRFTISRDNAKNTVYLQMNSLRPEDTAVYYCHVDEVRQSSWTTSNLWGQGTQVTVSS as the entry.
-2.84

Output log10 of koff of A4-043 (VHH) VHH: VQLQESGGGLVQPGGSLRLSCAASGRAFSINTMGWYRQAPGKQRELVATVTRDGSTNYAGSVKGRFTISRDNAKNTVYLQMNSLRPEDTAVYYCHVDEVRQSSWTTSNLWGQGTQVTVSS
-2.98

Report log10 of koff for A4-048 (VHH) VHH: VQLQESGGGLVQPGGSLRLSCAASGSMFSINTMGWYRQAPGKQRELVATVTRGGNTNYAGSVKGRFTISRDNAKNTVYLQMNSLRPEDTAVYYCHVDEVRQSSWTTSNLWGQGTQVTVSS
-3.51

Give log10 of koff for A4-001 (VHH) VHH: VQLQESGGGLVQPGGSLRLSCAASGRSFSINTMGWYRQAPGKQRELVATVTRGGSTNYAGSVKGRFTISRDNAKNTVYLQMNSLRPEDTAVYYCHIDEVRQSSWTTSNIWGQGTQVTVSS
-3.17

Give reported log10 of koff value for A4-028 (VHH) VHH: VQLQESGGGLVQPGGSLRLSCAASGSNFSINTMGWYRQAPGKQRELVATVTRGGDTNYADSVKGRFTISRDNAKNTVYLQMNSLRPEDTAVYYCHVDEIRESSWTTSNLWGQGTQVTVSS
-3.08

Supply recorded log10 of koff for A4-039 (VHH) VHH: VQLQESGGGLVQPGGSLRLSCAASGSGFSINTMGWYRQAPGKWRELVATVTRGGSTNYAGSVKGRFTISRDNAKNTVYLQMNSLRPEDTAVYYCHIDEVRQSSWTTSNLWGQGTQVTVSS here.
-2.75

Query log10 of koff for A4-030 (VHH) VHH: VQLQESGGGLVQPGGSLRLSCAASGSSFTINTMGWYRQAPGKQRELVAAVTRGGSTNYAGSVKGRFTISRDNAKNTIYLQMNSLRPEDTAVYYCHVDEIRQSSWTTSNLWGQGTQVTVSS
-3.47

Note log10 of koff for the binder shown: A4-035 (VHH) VHH: VQLQESGGGLVQAGGSLRLSCAASGRGFSINTMGWYRQAPGKQRELVAAVTRGGTTNYADSVKGRFTISRDNAKNTVYLQMNSLRPEDTAVYYCHVDEVRQSSWTTSNLWGQGTQVTVSS
-3.77

Data provenance: patent US20260193326A1
